assay: Waters XBridge BEH C18, 150 × 1 mm, 1.7 µm, 30 °C, 0.04 mL/min, estimated dead time 1.9 min; A: 79.7% water + 20% methanol + 0.3% acetic acid; B: 99.7% methanol + 0.3% acetic acid; gradient (min/%B) 0/0 17/58.7 17.2/100 20.2/100; details: stereoisomer not certain
Below, each entry is listed with its recorded LC retention time.
Please give a number only; it is taken to be in min.

Sample records with LC retention time:
CC(N)C(O)c1ccccc1 (configuration not stated)	5.2
CCC(=O)OC(Cc1ccccc1)(c1ccccc1)C(C)CNC (configuration not stated)	20.1
CCC(Cc1ccc2c(c1)OCO2)NC (configuration not stated)	10.3
CCNC(C)Cc1ccc2c(c1)OCO2 (configuration not stated)	9.4
CN1CCC23c4c5ccc(O)c4OC2C(O)C=CC3C1C5 (configuration not stated)	3.5

Q: Dear colleague, I am looking for the recorded LC retention time of the following compound: COc1ccc2c3c1OC1C(O)C=CC4C(C2)N(C)CCC341 (configuration not stated)
A: 4.8

Q: Requested field: LC retention time. Item: COC(=O)C1=CCC2CCC1N2C (configuration not stated)
A: 3.6
